The origin of these recorded values is patent US20260226034A1.

Test Target: NSP14 (Severe acute respiratory syndrome coronavirus 2, UniProt P0DTD1)
Protocol Notes: NSP14 MTase inhibition assay at 37° C. (MTase-Glo SAH detection)
Type: biochemical, SARS-CoV-2
Run Conditions: 37° C., 0.3 nM NSP14, 2.5 μM SAM, 2.5 μM GpppA RNA; read-out: Nsp14 Mtase Inh. IC50
I'd appreciate it if you marked entries satisfied when IC50 is lower than 1 nM and not satisfied when it is not.

Previously resolved entries follow.
{"Compound": "Cc1c(S(=O)(=O)c2ccc3[nH]ncc3c2)cc(C(=O)NCc2c(F)ccc3cnn(C4CC4)c23)n1C", "Label": "satisfied"}
{"Compound": "Cc1c(S(=O)(=O)c2ccc3[nH]nc(F)c3c2)cc(C(=O)NCc2c(F)ccc3c2N(C)C(=O)C3(F)F)n1C", "Label": "satisfied"}
{"Compound": "Cc1c(S(=O)(=O)c2ccc3[nH]ncc3c2)cc(C(=O)NCc2ccccc2S(C)(=O)=O)n1C", "Label": "not satisfied"}
{"Compound": "Cc1c(S(=O)(=O)c2ccc3[nH]ncc3c2)cc(C(=O)NCc2c(F)ccc3c2CCCO3)n1C", "Label": "satisfied"}
{"Compound": "CN=S(=O)(NC(=O)c1cc(S(=O)(=O)c2ccc3[nH]ncc3c2)c(C)n1C)c1ccccc1 (racemic)", "Label": "not satisfied"}

Input line: Consider the compound COCCn1c(C(=O)NCc2c(Cl)cnn2C)cc(S(=O)(=O)c2cc(Cl)c3[nH]ncc3c2)c1C . Is its IC50 strictly less than 1 nM?
Output line: not satisfied

====

Recorded measurements of pIC50, one per entry
Test Target: UniProt P0DTD1
Protocol Notes: NSP14 MTase inhibition assay at 37° C. (MTase-Glo SAH detection)
Format: biochemical, SARS-CoV-2
Run Conditions: 37° C., 0.3 nM NSP14, 2.5 μM SAM, 2.5 μM GpppA RNA; read-out: Nsp14 Mtase Inh. IC50
Answer as the number alone; pIC50 is minus log10 of concentration in mol/L.

Below, 5 compounds whose answers are already recorded.
{"Compound": "Cc1c(S(=O)(=O)c2cc(F)c3ncccc3c2)cc(C(=O)NCc2cccc3cnn(C)c23)n1C", "pIC50": 7.38}
{"Compound": "Cc1c(S(=O)(=O)c2ccc3[nH]ncc3c2)cc(C(=O)NNc2c(F)cccc2F)n1C", "pIC50": 8.02}
{"Compound": "O=C(NCc1c(F)ccc2ncn(C3CC3)c12)c1cc(S(=O)(=O)c2ccc3[nH]nc(F)c3c2)c2n1CCC2", "pIC50": 9.55}
{"Compound": "Cc1c(S(=O)(=O)c2ccc3[nH]ncc3c2)cc(C(=O)NC2CCc3cc(F)c(F)cc32)n1C (racemic)", "pIC50": 7.57}
{"Compound": "Cc1c(S(=O)(=O)c2ccc(C(F)(F)F)cc2)cc(C(=O)NCc2cccc3cnn(C)c23)n1C", "pIC50": 7.46}

Input line: I have this compound here, Cc1c(S(=O)(=O)c2cccc(C#N)c2)cc(C(=O)NCc2cccc3ncn(C)c23)n1C , and I need its recorded pIC50.
Output line: 8.31

Input line: Fill in: pIC50 of Cc1c(S(=O)(=O)c2ccc3[nH]ncc3c2)cc(C(=O)NCc2cn(C)c(=O)cn2)n1C is ___
Output line: 8.22
